# TARGET_ENTITY: Ataxin-2 (Homo sapiens) (UniProt Q99700)
# Sequence (Q99700 whole entry): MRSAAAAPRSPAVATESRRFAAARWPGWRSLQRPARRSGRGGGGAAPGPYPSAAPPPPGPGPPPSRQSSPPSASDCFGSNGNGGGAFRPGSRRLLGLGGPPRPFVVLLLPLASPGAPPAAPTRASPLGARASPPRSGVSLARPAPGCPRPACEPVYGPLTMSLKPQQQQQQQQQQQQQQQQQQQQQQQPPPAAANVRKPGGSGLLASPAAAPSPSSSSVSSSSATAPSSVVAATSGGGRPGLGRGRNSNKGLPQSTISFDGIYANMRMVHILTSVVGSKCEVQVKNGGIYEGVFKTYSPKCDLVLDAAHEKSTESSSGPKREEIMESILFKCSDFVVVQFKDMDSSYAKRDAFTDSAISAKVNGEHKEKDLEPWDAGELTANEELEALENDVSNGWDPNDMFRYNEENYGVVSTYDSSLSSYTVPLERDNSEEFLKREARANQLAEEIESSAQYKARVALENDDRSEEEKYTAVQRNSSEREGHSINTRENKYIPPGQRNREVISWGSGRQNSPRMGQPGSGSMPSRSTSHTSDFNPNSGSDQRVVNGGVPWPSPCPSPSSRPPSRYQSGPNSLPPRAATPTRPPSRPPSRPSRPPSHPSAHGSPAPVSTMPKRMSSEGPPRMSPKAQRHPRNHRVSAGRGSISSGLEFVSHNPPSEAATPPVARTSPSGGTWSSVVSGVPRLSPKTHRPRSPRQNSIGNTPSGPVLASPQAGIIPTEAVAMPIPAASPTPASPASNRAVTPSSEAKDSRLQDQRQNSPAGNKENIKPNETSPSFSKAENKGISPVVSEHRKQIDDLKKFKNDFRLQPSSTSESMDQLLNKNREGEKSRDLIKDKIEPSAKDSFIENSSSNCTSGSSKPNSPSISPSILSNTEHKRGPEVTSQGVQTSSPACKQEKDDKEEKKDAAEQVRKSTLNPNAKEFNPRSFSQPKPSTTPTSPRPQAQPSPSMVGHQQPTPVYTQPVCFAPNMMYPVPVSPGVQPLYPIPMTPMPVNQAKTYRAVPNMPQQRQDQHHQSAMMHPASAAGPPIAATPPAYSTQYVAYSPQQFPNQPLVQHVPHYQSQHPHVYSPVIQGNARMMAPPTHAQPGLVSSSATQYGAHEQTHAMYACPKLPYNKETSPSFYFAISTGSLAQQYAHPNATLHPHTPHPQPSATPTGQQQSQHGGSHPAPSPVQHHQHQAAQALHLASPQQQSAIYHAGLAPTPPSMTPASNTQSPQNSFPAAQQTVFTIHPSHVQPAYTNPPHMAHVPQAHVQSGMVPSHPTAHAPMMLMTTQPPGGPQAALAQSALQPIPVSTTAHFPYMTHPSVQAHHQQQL
# EXPERIMENT_SUMMARY: qHTS for Inhibitors of ATXN expression.
# Type: functional
Among all 400,000 compounds or so, about 2,100 (0.53%) were called active. Inconclusive results (about 14%) are left out. Shown is part of a subset that was picked to be rich in actives.
OBSERVATION_TYPE: Potency

Previously resolved entries follow.
[[record]]
compound = "O=C(COc1ccc(Cl)cc1)N(Cc1cccs1)C1CCS(=O)(=O)C1 (stereo unspecified)"
value_observed = "inactive"

[[record]]
compound = "Cc1cc(NC(=O)CCN2CCC(C)CC2)ccc1Br"
value_observed = "inactive"

[[record]]
compound = "Cc1cc(NC(=O)CN(C)S(=O)(=O)c2ccc3c(c2)CCCC(=O)N3)ccc1Br"
value_observed = "31.6 µM (active)"

[[record]]
compound = "CC1Nc2nc(N(C)C)nc(O)c2NC1C (stereo unspecified)"
value_observed = "inactive"

[[record]]
compound = "CN(C(=O)COC(=O)/C=C/c1ccc2ccccc2n1)C1CCS(=O)(=O)C1 (stereo unspecified)"
value_observed = "inactive"


Please turn your attention to the following entry.
# input Item under review: COc1cc(/C=C/C(=O)N2C(=O)c3cccc(N)c3C2=O)cc(OC)c1OC . Reported Potency?
# output inactive

----------
# TARGET_ENTITY: Ataxin-2 (Homo sapiens) (UniProt Q99700)
# EXPERIMENT_SUMMARY: qHTS for Inhibitors of ATXN expression.
# Assay type: functional
In all, about 400,000 compounds went through this assay and about 2,100 (0.53%) were called active. About 14% were inconclusive and are not listed. No rule for the calls is given here. Many of the other results were omitted from the sample, so actives are more common in it than they were.
Choose one outcome from this list and give only that: y = active, n = inactive

// below: answered molecules
[[record]]
structure_as_smiles = "O=C(OCC(=O)N1CCN(c2ccc(F)cc2)CC1)c1cnc2ccccc2n1"
group_label = "n"

[[record]]
structure_as_smiles = "COc1ccccc1N=C(NS(=O)(=O)c1ccc(C)cc1)c1ccccc1"
group_label = "n"

[[record]]
structure_as_smiles = "COc1ccc([N+](=O)[O-])c(S(=O)(=O)c2ccc(Cl)cc2)n1"
group_label = "y"

[[record]]
structure_as_smiles = "O=[N+]([O-])c1cncc([N+](=O)[O-])c1Nc1cccc(O)c1"
group_label = "y"


# input Record lookup: outcome of this test for Clc1cccc(N2CCN(Cc3nnc(-c4ccccc4)o3)CC2)c1 ?
# output n

----------
# TARGET_ENTITY: Ataxin-2 (Homo sapiens)
# EXPERIMENT_SUMMARY: qHTS for Inhibitors of ATXN expression.
# Type: functional
The whole screen tested about 400,000 compounds, of which about 2,100 (0.53%) were called active. Not shown: some 14% with an inconclusive outcome. Shown is part of a subset that was picked to be rich in actives.
OBSERVATION_TYPE: Potency

[[record]]
compound = "CCOC(=O)c1cc2c(=O)n3ccccc3nc2n(Cc2ccco2)/c1=N\\C(=O)c1ccc(C)c(C)c1"
observation_type = "Potency"
value_observed = "inactive"

[[record]]
compound = "Cc1cccc(N2CCN(C(=O)Cn3ncc4c3-c3cc(C)ccc3OC4)CC2C)c1 (stereo unspecified)"
observation_type = "Potency"
value_observed = "39.8 µM (active)"

[[record]]
compound = "CCN(CC)S(=O)(=O)c1ccc2c(c1)N(CC(=O)N1CCN(c3cccc(C)c3)C(C)C1)C(=O)CO2 (stereo unspecified)"
observation_type = "Potency"
value_observed = "35.5 µM (active)"

[[record]]
compound = "O=[N+]([O-])c1cccc(S(=O)(=O)NC2CC3CCC2C3)c1 (stereo unspecified)"
observation_type = "Potency"
value_observed = "inactive"

[[record]]
compound = "COc1ccc(C(=O)C2CCCN(C(=O)c3csc(SC)n3)C2)cc1F (stereo unspecified)"
observation_type = "Potency"
value_observed = "inactive"

[[record]]
compound = "COc1ccccc1N1CCN(C(=O)Cn2ncc3c2-c2cc(C)ccc2OC3)CC1"
observation_type = "Potency"
value_observed = "22.4 µM (active)"


# input Which Potency reading was recorded for the compound COc1ccc2c(Cl)c(C(=O)N/N=C3\CCCC(=O)C3)sc2c1 ?
# output inactive

# input For O=C(Oc1c(CN2CCOCC2)cc(Cl)c2cccnc12)c1ccccc1F , what is its reported Potency?
# output inactive

# input // lookup Potency for Cc1ccc2nc(N3CCN(C(=O)CCC(=O)O)CC3)nc(-c3ccccc3)c2c1
# output inactive

# input For O=C(Cc1ccc(Br)cc1)N(Cc1ccccc1)c1ccccn1 , what is its reported Potency?
# output inactive

# input Give its Potency value. Item: CC(=O)Nc1ccc(C(=O)Nc2ccncc2)cc1
# output inactive

# input Form field: reported Potency of N=c1c(C(=O)NCc2ccc(F)cc2)cc2c(=O)n3ccccc3nc2n1CC1CCCO1 (stereo unspecified)
# output inactive

# input What does the data say about its Potency? Entry: NC(=O)CC(NC(=O)Cc1ccc(Br)cc1)c1ccc(NC2CC3CCC2C3)c([N+](=O)[O-])c1 (stereo unspecified)
# output 25.1 µM (active)

# input Request the reported Potency associated with CCOc1ccc(S(=O)(=O)N(CC)CC(=O)N2CCCC2)cc1C
# output inactive

# input Which value of Potency has been reported for O=C(Cn1ncc2c1-c1ccccc1OC2)Nc1ccc(Cl)cn1 in the records?
# output inactive

# input Any idea what its Potency is? The compound is CN(C(=O)CN1C(=O)c2cccc(N)c2C1=O)C1CCCCC1
# output inactive

# input So what does the record say about Potency for O=C(O)c1ccc(NS(=O)(=O)c2ccc(N3CCCC3)c([N+](=O)[O-])c2)cc1 ?
# output inactive

# input I would be grateful if you could share the reported Potency for COc1ccccc1N1CCN(C(=O)C2CCN(S(=O)(=O)c3ccccc3F)CC2)CC1 .
# output inactive

# input // Potency lookup, key: CC1=C(C(=O)N2CCCC(C(=O)c3cccc(C(F)(F)F)c3)C2)OCCO1 (stereo unspecified)
# output inactive

# input compound: CCN(CC)c1nc2ccccc2nc1C(C#N)C(=O)NCCc1ccccc1 (stereo unspecified) ; wanted: its Potency
# output inactive

# input Look at this compound and give its reported Potency. Nc1nc(Cl)cc(=O)n1Cc1ccc(Cl)cc1
# output inactive
